- target_of_assay: human insulin receptor (IR-A) (Homo sapiens, UniProt P06213)
- Sequence (P06213 28-746 isoform P06213-2 limits assumed): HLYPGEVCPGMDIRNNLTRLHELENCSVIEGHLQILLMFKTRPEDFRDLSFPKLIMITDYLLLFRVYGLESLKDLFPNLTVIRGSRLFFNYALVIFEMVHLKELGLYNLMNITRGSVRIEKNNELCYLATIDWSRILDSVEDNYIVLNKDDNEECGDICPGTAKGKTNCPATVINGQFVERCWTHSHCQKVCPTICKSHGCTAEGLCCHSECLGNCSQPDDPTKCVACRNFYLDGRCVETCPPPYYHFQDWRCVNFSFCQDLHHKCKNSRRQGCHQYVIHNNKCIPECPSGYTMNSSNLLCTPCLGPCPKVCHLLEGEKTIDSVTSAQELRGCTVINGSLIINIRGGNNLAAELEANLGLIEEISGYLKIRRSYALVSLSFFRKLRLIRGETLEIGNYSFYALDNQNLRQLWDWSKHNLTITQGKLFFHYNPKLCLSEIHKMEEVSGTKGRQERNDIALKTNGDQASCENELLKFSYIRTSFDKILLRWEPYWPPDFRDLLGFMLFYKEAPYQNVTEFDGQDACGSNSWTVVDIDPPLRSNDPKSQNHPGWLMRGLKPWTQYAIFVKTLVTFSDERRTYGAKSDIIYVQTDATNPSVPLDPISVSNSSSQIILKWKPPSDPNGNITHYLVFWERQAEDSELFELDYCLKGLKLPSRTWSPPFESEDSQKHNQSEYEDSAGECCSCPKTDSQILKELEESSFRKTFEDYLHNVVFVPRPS
- Sequence (P06213 763-1382 partner limits assumed): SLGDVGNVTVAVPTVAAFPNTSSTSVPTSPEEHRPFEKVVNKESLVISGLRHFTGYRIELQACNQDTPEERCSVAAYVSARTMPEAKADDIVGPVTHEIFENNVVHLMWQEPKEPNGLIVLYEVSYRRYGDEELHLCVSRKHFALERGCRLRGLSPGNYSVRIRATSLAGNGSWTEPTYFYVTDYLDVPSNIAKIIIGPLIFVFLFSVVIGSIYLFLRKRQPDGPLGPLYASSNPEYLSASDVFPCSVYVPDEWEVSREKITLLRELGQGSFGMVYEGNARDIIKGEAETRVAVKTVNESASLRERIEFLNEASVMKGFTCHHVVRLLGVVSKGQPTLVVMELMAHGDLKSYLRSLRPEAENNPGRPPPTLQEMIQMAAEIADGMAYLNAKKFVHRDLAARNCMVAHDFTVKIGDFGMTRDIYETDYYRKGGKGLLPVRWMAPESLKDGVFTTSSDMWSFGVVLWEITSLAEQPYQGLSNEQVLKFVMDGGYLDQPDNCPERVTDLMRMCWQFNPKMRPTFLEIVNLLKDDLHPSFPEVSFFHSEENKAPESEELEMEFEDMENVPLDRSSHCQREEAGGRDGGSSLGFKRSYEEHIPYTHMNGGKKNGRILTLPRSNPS
- procedure_details: Insulin receptor affinity, SPA antibody capture assay, 0% HSA
- Type: binding
- particulars: relative to affinity of human insulin
Starred links: 1 amine or outer side, 2 acyl side, 3 side chain; linkers in the order of their positions; H or OH if unused. Positions of bridges follow the written chain, without caps; N, C: chain ends. Groups on a side chain read outwards from the residue. Chains are numbered I, II in the order given. No end group written: not given here. *: point of attachment. Phe(Nα-CONH2) = NC(=O)N[C@@H](Cc1ccccc1)C(=O)*; C20 diacid = O=C(O)CCCCCCCCCCCCCCCCCCC(=O)*; C18 diacid = O=C(O)CCCCCCCCCCCCCCCCC(=O)*; NMe2Phe = CN(C)[C@@H](Cc1ccccc1)C(=O)*; γGlu = O=C(O)[C@H](CCC(=O)[*:2])N[*:1]; Hydantoyl = NC(=O)NCC(=O)*; AEEA = NCCOCCOCC(=O)O; Me2Gly = CN(C)CC(=O)*
readout_kind: Relative IR-A affinity (@ 0% HSA) (%)
Report as a plain number; the unit % is understood.

substance	Relative IR-A affinity (@ 0% HSA) (%)
I: NMe2Phe-VNQHLCGSHLVEALYLVCGERGFHYTPK([AEEA-AEEA-γGlu-C18 diacid]) / II: Me2Gly-IVEQCCTSICSLEQLENYCN (disulfide I:6-II:6, I:18-II:19, II:5-II:10) [Example 1]	1.5

The substance listed as I: {Phe(Nα-CONH2)}-VNQHLCGSHLVEALHLVCGERGFHYTPK([AEEA-AEEA-γGlu-C20 diacid]) / II: Hydantoyl-IVEQCCTSICSLEQLENYCN (disulfide I:6-II:6, I:18-II:19, II:5-II:10) [Example 16] shows Relative IR-A affinity (@ 0% HSA) (%) equal to 0.1

###

- target_of_assay: human insulin receptor (IR-A) (Homo sapiens)
- procedure_details: Insulin receptor affinity, SPA antibody capture assay, 0% HSA
- Type: binding
- particulars: relative to affinity of human insulin
Starred links: 1 amine or outer side, 2 acyl side, 3 side chain; linkers in the order of their positions; H or OH if unused. Positions of bridges follow the written chain, without caps; N, C: chain ends. Groups on a side chain read outwards from the residue. Chains are numbered I, II in the order given. No end group written: not given here. *: point of attachment. Phe(Nα-CONH2) = NC(=O)N[C@@H](Cc1ccccc1)C(=O)*; C20 diacid = O=C(O)CCCCCCCCCCCCCCCCCCC(=O)*; C18 diacid = O=C(O)CCCCCCCCCCCCCCCCC(=O)*; γGlu = O=C(O)[C@H](CCC(=O)[*:2])N[*:1]; Hydantoyl = NC(=O)NCC(=O)*; AEEA = NCCOCCOCC(=O)O
readout_kind: Relative IR-A affinity (@ 0% HSA) (%)
Report as a plain number; the unit % is understood.

Reference set, count: 2
substance	target_of_assay	Relative IR-A affinity (@ 0% HSA) (%)
I: {Phe(Nα-CONH2)}-VNQHLCGSHLVEALYLVCGERGFHYPK([AEEA-AEEA-γGlu-C20 diacid]) / II: Hydantoyl-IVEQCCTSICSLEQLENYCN (disulfide I:6-II:6, I:18-II:19, II:5-II:10) [Example 28]	human insulin receptor (IR-A) (Homo sapiens)	0.7
I: {Phe(Nα-CONH2)}-VNQHLCGSHLVEALYLVCGERGFHYPK([AEEA-AEEA-γGlu-C18 diacid]) / II: Hydantoyl-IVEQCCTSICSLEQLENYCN (disulfide I:6-II:6, I:18-II:19, II:5-II:10) [Example 18]	human insulin receptor (IR-A) (Homo sapiens)	0.4

// assay human insulin receptor (IR-A) (Homo sapiens), entry I: {Phe(Nα-CONH2)}-VNQHLCGSHLVEALYLVCGERGFFYPK([AEEA-AEEA-γGlu-C20 diacid]) / II: Hydantoyl-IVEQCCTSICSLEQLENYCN (disulfide I:6-II:6, I:18-II:19, II:5-II:10) [Example 29] , Relative IR-A affinity (@ 0% HSA) (%) value = 2.6

// assay human insulin receptor (IR-A) (Homo sapiens), entry I: {Phe(Nα-CONH2)}-VNQHLCGSHLVEALYLVCGERGFFYPK([γGlu-C18 diacid]) / II: Hydantoyl-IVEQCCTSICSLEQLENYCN (disulfide I:6-II:6, I:18-II:19, II:5-II:10) [Example 23] , Relative IR-A affinity (@ 0% HSA) (%) value = 2.7

Reference source: patent US20140315797A1
